Every entry's value here was drawn from patent US10239835B2.

molecular target: HEK293 cells expressing NR1/NR2B (Homo sapiens (Human), UniProt Q05586+Q13224); assay: NR2B NAM Assay (FDSS Ca2+ influx cell assay); conditions: NR2B NAM assay, class of inhibitory concentration; read-out: Activity Category
Sequence (Q13224 27-1484, other chains not shown): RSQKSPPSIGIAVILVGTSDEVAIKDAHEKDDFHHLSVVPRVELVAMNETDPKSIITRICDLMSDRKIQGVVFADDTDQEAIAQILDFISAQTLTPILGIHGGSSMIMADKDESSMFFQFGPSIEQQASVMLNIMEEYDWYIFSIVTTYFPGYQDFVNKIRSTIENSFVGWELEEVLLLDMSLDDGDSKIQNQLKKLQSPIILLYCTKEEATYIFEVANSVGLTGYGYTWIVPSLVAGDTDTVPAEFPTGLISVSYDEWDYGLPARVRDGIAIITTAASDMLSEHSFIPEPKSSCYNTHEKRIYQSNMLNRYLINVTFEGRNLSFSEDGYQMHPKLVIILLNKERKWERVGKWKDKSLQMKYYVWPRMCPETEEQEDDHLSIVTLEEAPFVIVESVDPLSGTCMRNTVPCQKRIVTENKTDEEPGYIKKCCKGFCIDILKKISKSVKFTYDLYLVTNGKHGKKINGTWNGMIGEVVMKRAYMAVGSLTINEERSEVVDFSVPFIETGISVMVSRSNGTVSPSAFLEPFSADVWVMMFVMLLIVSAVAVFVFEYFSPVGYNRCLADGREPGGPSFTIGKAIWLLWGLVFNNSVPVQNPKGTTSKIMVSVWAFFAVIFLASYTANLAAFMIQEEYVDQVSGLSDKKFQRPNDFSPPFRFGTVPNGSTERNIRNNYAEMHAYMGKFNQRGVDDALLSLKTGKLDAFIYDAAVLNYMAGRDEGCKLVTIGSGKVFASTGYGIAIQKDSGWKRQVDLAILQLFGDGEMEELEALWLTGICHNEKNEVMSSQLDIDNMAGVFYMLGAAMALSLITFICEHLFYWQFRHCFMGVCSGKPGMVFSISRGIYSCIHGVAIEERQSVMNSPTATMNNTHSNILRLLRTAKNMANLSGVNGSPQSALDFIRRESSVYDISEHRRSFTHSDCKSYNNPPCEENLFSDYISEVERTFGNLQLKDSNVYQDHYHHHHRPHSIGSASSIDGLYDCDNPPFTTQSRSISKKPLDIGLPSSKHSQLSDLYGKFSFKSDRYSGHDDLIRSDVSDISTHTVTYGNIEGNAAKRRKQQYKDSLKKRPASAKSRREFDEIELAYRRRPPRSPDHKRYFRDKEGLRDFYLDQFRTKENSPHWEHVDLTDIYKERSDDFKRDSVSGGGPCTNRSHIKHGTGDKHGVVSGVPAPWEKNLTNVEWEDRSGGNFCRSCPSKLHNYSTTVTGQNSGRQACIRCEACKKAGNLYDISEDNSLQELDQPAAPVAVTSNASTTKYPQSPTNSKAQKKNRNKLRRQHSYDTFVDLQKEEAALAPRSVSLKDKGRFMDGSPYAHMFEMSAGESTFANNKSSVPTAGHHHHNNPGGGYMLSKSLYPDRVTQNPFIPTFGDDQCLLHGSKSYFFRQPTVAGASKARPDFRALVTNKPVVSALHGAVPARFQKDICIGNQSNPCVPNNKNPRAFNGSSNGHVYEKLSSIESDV
pIC50: −log10 of the molar value.

| compound | assay-target | pIC50 |
| --- | --- | --- |
| N#Cc1ccc(O[C@@H]2C[C@@H]3CN(CC(O)c4ccc(O)cn4)C[C@@H]3C2)cc1 (some centres unmarked) | HEK293 cells expressing NR1/NR2B (Homo sapiens (Human), UniProt Q05586+Q13224) | < 5.00 |
| Oc1ccc(C(O)CN2C[C@H]3C[C@@H](Oc4cccnc4)C[C@H]3C2)cc1 (some centres unmarked) | HEK293 cells expressing NR1/NR2B (Homo sapiens (Human), UniProt Q05586+Q13224) | 5.00 to 6.00 |
| O=C(CN1C[C@H]2C[C@H](Oc3ccc(F)nc3)C[C@H]2C1)c1ccc(O)cc1 | HEK293 cells expressing NR1/NR2B (Homo sapiens (Human), UniProt Q05586+Q13224) | > 7.00 |
| Oc1ccc(C(O)CN2C[C@H]3C[C@H](Oc4cccc(F)c4F)C[C@H]3C2)nc1 (some centres unmarked) | HEK293 cells expressing NR1/NR2B (Homo sapiens (Human), UniProt Q05586+Q13224) | > 7.00 |
| COc1ccc(O[C@@H]2C[C@@H]3CN(CC(=O)c4ccc(O)c(F)c4)C[C@@H]3C2)cc1 | HEK293 cells expressing NR1/NR2B (Homo sapiens (Human), UniProt Q05586+Q13224) | 6.00 to 7.00 |
| O=C(CN1C[C@H]2C[C@H](Oc3ccccc3)C[C@H]2C1)c1ccc(O)cn1 | HEK293 cells expressing NR1/NR2B (Homo sapiens (Human), UniProt Q05586+Q13224) | 5.00 to 6.00 |
| O=C(CN1C[C@H]2C[C@H](Oc3cccnc3)C[C@H]2C1)c1ccc(O)c(F)c1 | HEK293 cells expressing NR1/NR2B (Homo sapiens (Human), UniProt Q05586+Q13224) | 6.00 to 7.00 |
| Oc1ccc(C(O)CN2C[C@H]3C[C@H](Oc4ccc(F)cc4F)C[C@H]3C2)nc1 (some centres unmarked) | HEK293 cells expressing NR1/NR2B (Homo sapiens (Human), UniProt Q05586+Q13224) | > 7.00 |
